# TARGET: T1, Clostridium difficile toxin A (TcdA) (Clostridium difficile, UniProt P16154 1-2710)
# T1 construct: mature; also called full-length TcdA
# T1 sequence (P16154 whole entry): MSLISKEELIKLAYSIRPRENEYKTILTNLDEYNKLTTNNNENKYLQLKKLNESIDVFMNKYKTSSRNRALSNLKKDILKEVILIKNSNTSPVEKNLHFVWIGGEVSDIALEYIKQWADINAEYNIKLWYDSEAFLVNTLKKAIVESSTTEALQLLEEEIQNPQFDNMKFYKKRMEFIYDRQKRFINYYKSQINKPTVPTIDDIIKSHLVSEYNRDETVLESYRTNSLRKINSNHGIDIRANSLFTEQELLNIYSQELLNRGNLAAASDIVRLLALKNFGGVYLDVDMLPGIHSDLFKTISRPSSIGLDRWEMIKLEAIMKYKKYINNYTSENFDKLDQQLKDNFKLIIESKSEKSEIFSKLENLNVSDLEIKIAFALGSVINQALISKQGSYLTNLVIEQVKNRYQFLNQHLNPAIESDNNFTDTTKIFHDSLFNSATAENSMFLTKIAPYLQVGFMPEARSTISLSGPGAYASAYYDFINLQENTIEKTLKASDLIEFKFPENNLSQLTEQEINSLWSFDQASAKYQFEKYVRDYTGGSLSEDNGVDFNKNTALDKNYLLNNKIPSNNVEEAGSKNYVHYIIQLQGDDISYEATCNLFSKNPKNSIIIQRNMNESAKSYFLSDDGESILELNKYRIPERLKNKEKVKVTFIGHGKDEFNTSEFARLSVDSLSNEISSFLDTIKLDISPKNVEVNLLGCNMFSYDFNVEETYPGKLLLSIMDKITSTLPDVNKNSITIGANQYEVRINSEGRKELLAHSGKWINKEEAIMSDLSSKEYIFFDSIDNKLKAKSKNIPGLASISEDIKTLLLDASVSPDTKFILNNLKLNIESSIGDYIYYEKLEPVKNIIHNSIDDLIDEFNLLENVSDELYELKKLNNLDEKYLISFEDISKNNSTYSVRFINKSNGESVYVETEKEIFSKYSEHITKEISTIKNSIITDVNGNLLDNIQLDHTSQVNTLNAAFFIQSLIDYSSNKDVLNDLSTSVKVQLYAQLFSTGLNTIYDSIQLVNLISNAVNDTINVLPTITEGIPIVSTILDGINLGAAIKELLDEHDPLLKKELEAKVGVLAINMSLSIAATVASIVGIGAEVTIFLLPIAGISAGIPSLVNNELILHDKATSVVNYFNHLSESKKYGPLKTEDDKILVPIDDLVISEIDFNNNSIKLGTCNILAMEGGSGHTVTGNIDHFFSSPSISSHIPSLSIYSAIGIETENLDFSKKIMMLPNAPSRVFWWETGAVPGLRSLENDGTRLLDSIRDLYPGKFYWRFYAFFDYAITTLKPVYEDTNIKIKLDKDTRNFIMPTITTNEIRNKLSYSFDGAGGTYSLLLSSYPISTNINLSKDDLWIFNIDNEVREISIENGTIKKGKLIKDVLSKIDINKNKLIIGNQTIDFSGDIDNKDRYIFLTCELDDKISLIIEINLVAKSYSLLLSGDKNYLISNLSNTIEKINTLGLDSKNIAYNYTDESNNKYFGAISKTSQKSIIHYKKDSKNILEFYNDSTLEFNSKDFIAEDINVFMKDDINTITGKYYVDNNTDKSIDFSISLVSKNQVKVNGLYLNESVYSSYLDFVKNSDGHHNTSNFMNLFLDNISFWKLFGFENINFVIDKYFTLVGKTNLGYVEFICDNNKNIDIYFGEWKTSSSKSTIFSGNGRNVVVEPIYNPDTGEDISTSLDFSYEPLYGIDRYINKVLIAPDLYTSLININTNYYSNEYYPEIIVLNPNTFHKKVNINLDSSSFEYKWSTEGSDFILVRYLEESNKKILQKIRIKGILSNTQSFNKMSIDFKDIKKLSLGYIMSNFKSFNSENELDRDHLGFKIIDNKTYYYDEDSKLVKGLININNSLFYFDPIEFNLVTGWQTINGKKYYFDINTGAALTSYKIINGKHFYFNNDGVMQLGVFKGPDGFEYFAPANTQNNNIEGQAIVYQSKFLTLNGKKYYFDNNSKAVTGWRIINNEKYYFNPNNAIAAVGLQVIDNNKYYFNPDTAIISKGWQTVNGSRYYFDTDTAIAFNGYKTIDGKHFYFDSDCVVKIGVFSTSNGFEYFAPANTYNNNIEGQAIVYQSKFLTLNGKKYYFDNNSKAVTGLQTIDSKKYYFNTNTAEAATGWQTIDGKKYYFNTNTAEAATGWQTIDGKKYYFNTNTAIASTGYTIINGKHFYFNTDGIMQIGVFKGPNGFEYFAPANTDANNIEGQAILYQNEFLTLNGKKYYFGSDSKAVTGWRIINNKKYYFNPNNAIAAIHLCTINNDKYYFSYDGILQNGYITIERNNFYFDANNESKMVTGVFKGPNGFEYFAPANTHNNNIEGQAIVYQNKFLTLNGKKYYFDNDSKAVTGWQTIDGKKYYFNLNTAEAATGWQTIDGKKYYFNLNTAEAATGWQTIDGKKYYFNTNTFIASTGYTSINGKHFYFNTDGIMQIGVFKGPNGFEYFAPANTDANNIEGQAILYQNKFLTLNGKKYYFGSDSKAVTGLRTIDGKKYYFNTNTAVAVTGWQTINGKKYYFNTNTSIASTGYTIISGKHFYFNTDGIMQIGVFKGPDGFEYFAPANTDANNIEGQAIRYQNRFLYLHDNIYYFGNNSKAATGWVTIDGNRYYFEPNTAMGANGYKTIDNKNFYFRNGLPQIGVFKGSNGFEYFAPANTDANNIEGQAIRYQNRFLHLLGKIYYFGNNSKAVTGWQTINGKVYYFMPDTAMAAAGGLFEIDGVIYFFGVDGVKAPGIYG
# PROTOCOL_SUMMARY: SPR on immobilized TcdA
# Description: Before surface plasmon resonance (SPR) binding experiments, IMAC-purified VHHs were subjected to de-salting and further purification by size-exclusion chromatography (SEC). […] Monomeric VHH fractions were collected and analyzed for binding to TcdA using a Biacore 3000 SPR instrument (GE Healthcare). […] Reference-subtracted sensorgrams were analyzed with BIAevaluation software (GE Healthcare) and fit to a 1:1 binding model. […]
ASSAY_METRIC: fold decrease in affinity relative to parent A26.8 VHH

Prompt: Form field: reported fold decrease in affinity relative to parent A26.8 VHH of A26.8 VHH mutant D107R (VHH, not shown: small tags and cut ends) VHH: QVKLEESGGGLVQAGGSLRLSCAASERTFSRYPVAWFRQAPGAEREFVAVISSTGTSTYYADSVKGRFTISRDNAKVTVYLQMNNLKREDTAVYFCAVNSQRTRLQRPNEYDYWGQGTQVTVSS
Response: ≤ 2.5 fold

Prompt: Can you check A26.8 VHH mutant D107Y (VHH, not shown: small tags and cut ends) VHH: QVKLEESGGGLVQAGGSLRLSCAASERTFSRYPVAWFRQAPGAEREFVAVISSTGTSTYYADSVKGRFTISRDNAKVTVYLQMNNLKREDTAVYFCAVNSQRTRLQYPNEYDYWGQGTQVTVSS next?
Response: ≤ 2.5 fold

Prompt: Param item: A26.8 VHH mutant R104W (VHH, not shown: small tags and cut ends) VHH: QVKLEESGGGLVQAGGSLRLSCAASERTFSRYPVAWFRQAPGAEREFVAVISSTGTSTYYADSVKGRFTISRDNAKVTVYLQMNNLKREDTAVYFCAVNSQRTWLQDPNEYDYWGQGTQVTVSS
Response: ~10 fold

Prompt: // same read-out, input: A26.8 VHH mutant Q106F (VHH, not shown: small tags and cut ends) VHH: QVKLEESGGGLVQAGGSLRLSCAASERTFSRYPVAWFRQAPGAEREFVAVISSTGTSTYYADSVKGRFTISRDNAKVTVYLQMNNLKREDTAVYFCAVNSQRTRLFDPNEYDYWGQGTQVTVSS
Response: 30 to 300 fold
